Target: EED (1-441)-His protein (Homo sapiens, UniProt O75530)
Construct: 30 nM EED (1-441)-His protein
Sequence (O75530 whole entry): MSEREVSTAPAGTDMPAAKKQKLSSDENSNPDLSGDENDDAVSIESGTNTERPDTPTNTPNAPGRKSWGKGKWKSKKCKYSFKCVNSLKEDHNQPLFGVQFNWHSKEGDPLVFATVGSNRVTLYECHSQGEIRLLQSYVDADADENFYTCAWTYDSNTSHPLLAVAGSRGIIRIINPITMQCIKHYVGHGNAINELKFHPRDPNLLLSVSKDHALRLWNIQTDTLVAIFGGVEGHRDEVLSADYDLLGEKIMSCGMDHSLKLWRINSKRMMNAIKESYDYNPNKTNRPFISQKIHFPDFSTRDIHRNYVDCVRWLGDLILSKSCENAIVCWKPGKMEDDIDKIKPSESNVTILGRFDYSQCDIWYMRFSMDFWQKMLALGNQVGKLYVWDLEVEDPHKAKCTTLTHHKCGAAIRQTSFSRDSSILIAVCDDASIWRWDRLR
Assay: EED-H3K27Me3 peptide competition binding assay by AlphaScreen
Conditions: read-out: (a) IC50, EED Alphascreen binding Qualified
Define the label as 1.0 when IC50 is strictly less than 80 nM and as 0.0 in all remaining cases.

| compound | answer label |
| --- | --- |
| COc1cccc(F)c1CNc1ccc(-c2ncccc2C)c2nncn12 [Example 6] | 0.0 |
| COc1cccc(F)c1CNc1ccc(-c2cnc(N3CCN(C(C)C)CC3)nc2)c2nncn12 [Example 131] | 1.0 |
| COc1cccc(F)c1CNc1ccc(-c2cncnc2)c2nncn12 [Example 147] | 1.0 |
| COc1ccccc1CNc1ccc(-c2ccnc(C)c2)c2nncn12 [Example 91] | 1.0 |
| COc1cc(-c2ccc(NCc3ccccc3OC)n3cnnc23)ccn1 [Example 59] | 1.0 |
| COc1ncc(-c2ccc(NCc3ccccc3OC)n3cnnc23)cn1 [Example 52] | 0.0 |
| CCN1CCC(S(=O)(=O)c2ccc(-c3ccc(NCc4c(F)cccc4OC)n4cnnc34)cn2)CC1 [Example 149] | 1.0 |
| COc1ccccc1CNc1ccc(-c2ccc(C)nc2)c2nncn12 [Example 111] | 1.0 |
| COc1cccc(F)c1CNc1ccc(-c2c(C)noc2C)c2nncn12 [Example 139] | 1.0 |
